experiment.description: Selectivity ratio of IC50 for MMP2 to IC50 for MMP13
measurement.kind: Ratio IC50
When you answer, write just the number.

// worked examples, Ratio IC50 included
smiles.entry: Cc1c(C(=O)Nc2ccc(-c3ccc(S(=O)(=O)N[C@H](C(=O)O)C(C)C)cc3)cc2)oc2cccc(-c3ccoc3)c12
measurement.kind: Ratio IC50
reported.value: 322
--
smiles.entry: CCOc1cccc2oc(C(=O)Nc3ccc(-c4ccc(S(=O)(=O)N[C@H](C(=O)O)C(C)C)cc4)cc3)c(C)c12
measurement.kind: Ratio IC50
reported.value: 485
--
smiles.entry: Cc1c(C(=O)Nc2ccc(-c3ccc(S(=O)(=O)N[C@H](C(=O)O)C(C)C)cc3)nc2)oc2cccc(NS(C)(=O)=O)c12
measurement.kind: Ratio IC50
reported.value: 188
--
smiles.entry: COC(=O)C(C)(C)Oc1cccc2oc(C(=O)Nc3ccc(-c4ccc(S(=O)(=O)N[C@H](C(=O)O)C(C)C)cc4)cc3)c(C)c12
measurement.kind: Ratio IC50
reported.value: 248
--
smiles.entry: Cc1c(C(=O)Nc2ccc(-c3ccc(S(=O)(=O)N[C@H](C(=O)O)C(C)C)cc3)cc2)oc2cccc(N(C)C)c12
measurement.kind: Ratio IC50
reported.value: 786

*Q* Please look up its Ratio IC50: Cc1c(C(=O)Nc2ccc(-c3ccc(S(=O)(=O)N[C@H](C(=O)O)C(C)C)cc3)cc2)oc2cccc(N3CCOCC3)c12
*A* 51

*Q* COCCCc1cccc2oc(C(=O)Nc3ccc(-c4ccc(S(=O)(=O)N[C@H](C(=O)O)C(C)C)cc4)cc3)c(C)c12 ?
*A* 364

*Q* CCc1cccc2oc(C(=O)Nc3ccc(-c4ccc(S(=O)(=O)N[C@H](C(=O)O)C(C)C)cc4)cc3)c(C)c12 ?
*A* 613

*Q* Cc1cccc2oc(C(=O)Nc3ccc(-c4ccc(S(=O)(=O)N[C@H](C(=O)O)C(C)C)cc4)cc3)c(C)c12 ?
*A* 287

*Q* Cc1c(C(=O)Nc2ccc(-c3ccc(S(=O)(=O)N[C@H](C(=O)O)C(C)C)cc3)cc2)oc2cccc(NS(C)(=O)=O)c12 ?
*A* 165

*Q* Cc1c(C(=O)Nc2ccc(-c3ccc(S(=O)(=O)N[C@H](C(=O)O)C(C)C)cc3)cc2)oc2cccc(O)c12 ?
*A* 63

*Q* C#Cc1cccc2oc(C(=O)Nc3ccc(-c4ccc(S(=O)(=O)N[C@H](C(=O)O)C(C)C)cc4)cc3)c(C)c12 ?
*A* 98

*Q* Cc1c(C(=O)Nc2ccc(-c3ccc(S(=O)(=O)N[C@H](C(=O)O)C(C)C)cc3)cc2)oc2cccc(Oc3ccccc3)c12 ?
*A* 263

*Q* CC#Cc1cccc2oc(C(=O)Nc3ccc(-c4ccc(S(=O)(=O)N[C@H](C(=O)O)C(C)C)cc4)cc3)c(C)c12 ?
*A* 1580

*Q* Cc1c(C(=O)Nc2ccc(-c3ccc(S(=O)(=O)N[C@H](C(=O)O)C(C)C)cc3)cc2)oc2cccc(-c3ccccc3)c12 ?
*A* 243

----------
assayed.target: Matrix metalloproteinase-14 (Homo sapiens)
measurement.kind: pIC50
Please treat pIC50 as minus the base-10 logarithm of the molar concentration.

*Q* Record lookup: for Matrix metalloproteinase-14 (Homo sapiens), what pIC50 belongs to Cc1c(C(=O)Nc2ccc(-c3ccc(S(=O)(=O)N[C@H](C(=O)O)C(C)C)cc3)cc2)oc2cccc(NS(C)(=O)=O)c12 ?
*A* 4.95

Cited source: ChEMBL document CHEMBL1153501
